Molecular target: human ACC2 (Homo sapiens, UniProt O00763)
Sequence (O00763 129-2458 limits assumed): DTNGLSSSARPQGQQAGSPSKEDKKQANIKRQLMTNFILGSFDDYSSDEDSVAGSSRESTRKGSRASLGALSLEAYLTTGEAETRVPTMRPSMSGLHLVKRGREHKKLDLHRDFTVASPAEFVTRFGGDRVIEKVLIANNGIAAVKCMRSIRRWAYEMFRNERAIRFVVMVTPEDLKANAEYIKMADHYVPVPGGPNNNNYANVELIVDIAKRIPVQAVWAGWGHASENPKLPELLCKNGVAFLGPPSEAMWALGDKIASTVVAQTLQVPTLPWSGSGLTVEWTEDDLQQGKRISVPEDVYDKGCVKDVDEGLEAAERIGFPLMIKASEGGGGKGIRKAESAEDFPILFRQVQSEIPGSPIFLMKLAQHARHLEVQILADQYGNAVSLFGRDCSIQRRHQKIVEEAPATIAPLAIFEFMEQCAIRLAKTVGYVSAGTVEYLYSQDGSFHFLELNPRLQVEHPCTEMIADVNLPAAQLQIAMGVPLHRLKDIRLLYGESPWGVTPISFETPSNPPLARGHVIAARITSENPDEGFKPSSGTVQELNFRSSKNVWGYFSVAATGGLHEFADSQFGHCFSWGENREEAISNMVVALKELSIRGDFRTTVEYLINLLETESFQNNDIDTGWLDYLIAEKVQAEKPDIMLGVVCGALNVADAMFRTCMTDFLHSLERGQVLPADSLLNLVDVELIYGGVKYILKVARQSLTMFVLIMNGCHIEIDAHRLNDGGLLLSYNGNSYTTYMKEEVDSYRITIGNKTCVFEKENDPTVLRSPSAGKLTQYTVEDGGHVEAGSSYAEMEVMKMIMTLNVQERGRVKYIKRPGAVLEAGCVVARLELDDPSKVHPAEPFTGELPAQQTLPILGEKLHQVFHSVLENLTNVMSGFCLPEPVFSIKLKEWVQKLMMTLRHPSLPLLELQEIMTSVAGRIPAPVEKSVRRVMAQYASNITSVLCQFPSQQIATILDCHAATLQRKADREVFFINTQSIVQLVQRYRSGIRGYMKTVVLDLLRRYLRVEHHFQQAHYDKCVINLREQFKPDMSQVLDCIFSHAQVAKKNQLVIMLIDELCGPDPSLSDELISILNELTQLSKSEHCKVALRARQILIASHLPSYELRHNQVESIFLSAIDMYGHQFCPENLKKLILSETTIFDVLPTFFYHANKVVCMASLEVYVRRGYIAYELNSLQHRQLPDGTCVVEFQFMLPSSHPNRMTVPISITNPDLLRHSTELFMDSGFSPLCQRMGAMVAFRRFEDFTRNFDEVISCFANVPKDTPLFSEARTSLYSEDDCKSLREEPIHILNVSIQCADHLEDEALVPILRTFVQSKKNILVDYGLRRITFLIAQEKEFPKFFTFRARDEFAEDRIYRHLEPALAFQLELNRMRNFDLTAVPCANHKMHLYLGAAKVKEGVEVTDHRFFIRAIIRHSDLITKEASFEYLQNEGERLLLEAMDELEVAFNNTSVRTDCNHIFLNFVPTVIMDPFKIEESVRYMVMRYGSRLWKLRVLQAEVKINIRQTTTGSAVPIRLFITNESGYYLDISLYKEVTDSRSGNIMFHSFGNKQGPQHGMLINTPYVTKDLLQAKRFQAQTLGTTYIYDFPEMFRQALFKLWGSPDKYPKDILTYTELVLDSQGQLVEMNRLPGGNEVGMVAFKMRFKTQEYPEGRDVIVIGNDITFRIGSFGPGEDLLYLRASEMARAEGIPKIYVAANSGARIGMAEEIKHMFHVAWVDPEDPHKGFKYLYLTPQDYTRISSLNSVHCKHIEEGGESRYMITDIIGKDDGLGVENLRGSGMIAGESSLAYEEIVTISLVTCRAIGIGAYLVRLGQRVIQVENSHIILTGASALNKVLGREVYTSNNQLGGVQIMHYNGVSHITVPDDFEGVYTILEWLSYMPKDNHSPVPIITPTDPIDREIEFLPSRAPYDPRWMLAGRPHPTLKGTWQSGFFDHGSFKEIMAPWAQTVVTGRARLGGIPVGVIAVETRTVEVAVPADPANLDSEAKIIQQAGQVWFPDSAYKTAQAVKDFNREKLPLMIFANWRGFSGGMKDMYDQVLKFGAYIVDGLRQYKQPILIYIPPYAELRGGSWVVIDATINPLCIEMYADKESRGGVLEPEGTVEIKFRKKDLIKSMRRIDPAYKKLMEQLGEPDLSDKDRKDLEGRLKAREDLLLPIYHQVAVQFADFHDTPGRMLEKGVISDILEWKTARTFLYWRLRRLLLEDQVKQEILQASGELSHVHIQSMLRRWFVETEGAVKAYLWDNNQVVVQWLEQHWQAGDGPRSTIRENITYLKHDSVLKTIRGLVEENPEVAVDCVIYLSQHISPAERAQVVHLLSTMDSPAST
pIC50: −log10 of the molar value.
Endpoint name: pIC50

Compound	Endpoint name	Number
CCOc1ccc(C#Cc2ccc(CC(=O)NC)cc2)cc1	pIC50	5.27
CCOc1ccc(C#Cc2ccc(C(C)C(=O)NC3COC3)cc2)cc1 (stereo not drawn)	pIC50	6.21
CCNC(=O)C(C)c1ccc(C#Cc2ccnc(OC(C)C)c2)cc1 (stereo not drawn)	pIC50	6.60
CCNC(=O)C(C)c1ccc(C#Cc2ccc(OC3CCCC3)cc2)cc1 (stereo not drawn)	pIC50	6.96
CCNC(=O)C(C)c1ccc(C#Cc2cnc(NC(C)CC)nc2)cc1 (stereo not drawn)	pIC50	6.39
CCNC(=O)C(C)c1ccc(C#Cc2ccc(OCCCOC)cc2)cc1 (stereo not drawn)	pIC50	6.36
CCNC(=O)C(C)c1ccc(C#Cc2cnc(N3CC4CCCC4C3)nc2)cc1 (stereo not drawn)	pIC50	6.57
CCCOc1ccc(C#Cc2ccc(C(C)C(=O)NCC)cc2)c(C#N)c1 (stereo not drawn)	pIC50	5.92
CCNC(=O)C(C)c1ccc(C#Cc2ccc(N3CCCCC3=O)cc2)cc1 (stereo not drawn)	pIC50	5.40
